Assignment: determine reported AntiCD3/CD28 (CD4 T cell proliferation) repeat 1 for the given binders.
molecular target: chimeric BTLA of humanised-BTLA mice (human extracellular region, murine transmembrane and signaling … (human; mouse, UniProt Q7TSA3 184-306, limits assumed); assay: cell-based or functional assay; also: test concentration or dose not given here
Sequence (Q7TSA3 other isoform, or with tags, fused parts or gaps mutant limits assumed): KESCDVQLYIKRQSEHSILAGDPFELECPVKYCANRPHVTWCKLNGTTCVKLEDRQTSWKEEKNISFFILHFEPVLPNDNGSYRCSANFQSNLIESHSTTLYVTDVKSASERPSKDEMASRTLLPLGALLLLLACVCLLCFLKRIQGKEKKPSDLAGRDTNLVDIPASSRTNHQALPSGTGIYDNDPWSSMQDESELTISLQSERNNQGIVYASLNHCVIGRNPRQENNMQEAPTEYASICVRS
# output: bare number, implied unit % inhibition

Query: Quickly give me recorded AntiCD3/CD28 (CD4 T cell proliferation) repeat 1 for 3A9 (antibody, IgG1, V domains shown, mIgG1) VH: QVQLKQSGAELVRPGASVKLSCKASGYTFTDYYINWVKQRPGQGLEWIARIYPGSGNTYYNEKFKGKATLTAEKSSSTAYMQLSSLTSEDSAVYFCARGYGNSDYWGQGTTLTVSS VL: DILLTQSPAILSVSPGERVSFSCRASQSIGTRIHWYQQRTNGSPRLLIKYASESISGIPSRFSGSGSGTDFTLSINSVESEDIADYYCQQSNSWPYTFGGGTKLEIK
Reply: 9

Query: Quickly give me recorded AntiCD3/CD28 (CD4 T cell proliferation) repeat 1 for 15C6 (antibody, IgG1, V domains shown, mIgG1) VH: QVQLQQSGPELVKPGASVKISCKASGYAFSSSWMNWVKQRPGKGLEWIGRIYPGDGDTNYNGKFKGKATLTADKSSSTAYMQLSSLTSEDSAVYFCARRGYGYLAYWGQGTLVTVSA VL: DIVMTQSHKFMSTSVGDRVSITCKASQDVSTAVAWYQQKPGQSPKLLIYSASYRYTGVPDRFTGSGSGTDFTFTISSVQAEDLAVYYCQQHYSTPYTFGGGTKLEIK
Reply: 2

Query: Quickly give me recorded AntiCD3/CD28 (CD4 T cell proliferation) repeat 1 for 26B1 (antibody, IgG1, V domains shown, mIgG1) VH: EVQLQQSGPVLVKPGASVKMSCKASGYTFTDYYLNWVKQSHGKSLEWIGLIDPYNGGSSCNQKFKGKATLTVDKSSSTAYMDLNSLTSEDSAVYYCARGNAMDYWGQGTSVTVSS VL: DIVMTQSHKFMSTSVGDRVSITCKASQDVSTAVAWYQEKPGQSPKLLIYWASTRHTGVPDRFTGSGSGTDYILNISSVQAEDLALYYCQQHYIIPYMFGGGTKLEIK
Reply: 11
